Origin of the recorded values: patent US7049311B1

pIC50 for assorted compounds
Tested on: A2780
Assay: Ovarian carcinoma cytotoxicity assay
Assay type: cell-based, human
Details: Homo sapiens, A2780; 96 hours, sulphorhodamine B; read-out: IC50 A2780
In simple prose, pIC50 is minus the logarithm base ten of a concentration in moles per litre.

COc1ccc2c(c1)C(=O)N1CCC[C@H]1C=N2 (stereo in doubt): 6.33
O=C1c2cc(-c3cccc([N+](=O)[O-])c3)ccc2N=C[C@@H]2CCCN12: 4.46
O=C1c2cc(-c3ccccc3)ccc2N=C[C@@H]2CCCN12: 5.94

We now examine a further compound.
**Query** Query the reported pIC50 for A2780; item: COc1cc2c(cc1OCc1ccccc1)N=C[C@@H]1CC(CCO)=CN1C2=O
**Result** 7.15

---

Test system: CH1cisR
Assay: Ovarian carcinoma cytotoxicity assay
Format: cell-based
Settings: Homo sapiens, CH1cisR, 96 h, read-out: IC50 CH1cisR
Method: Compounds of the invention (and Anthramycin as a comparison) were evaluated for their cytotoxic activity in ovarian cell lines by Dr Lloyd R. Kelland's group at The Institute of Cancer Research, Sutton, UK. […] Single viable cells were seeded in growth medium (160 μL) in […] microtitre plates and allowed to attach overnight. […] Plates were then shaken and absorbance readings at 540 nm were determined using a plate reader. […]
readout-kind: IC50 (nM)
The response must be a number in nM with no trailing unit.

**Query** May I ask what IC50 has been recorded for C=C1C[C@H]2C=Nc3cc(OCCCOc4cc5c(cc4OC)C(=O)N4CC(=C)C[C@H]4C=N5)c(OC)cc3C(=O)N2C1 [UP2001 (80)] ?
**Result** 0.6

---

System: A2780cisR
Experiment: Cytotoxicity in cisplatin-resistant A2780cisR (Example 9)
Assay type: cell-based, human
Conditions: Homo sapiens, A2780cisR, 96 h, read-out: IC50 A2780cis^a
Procedure: Relative to the parental line, the A2780cisR subline is known to have elevated GSH levels, an increased level of repair of DNA-cisplatin adducts, and a decreased ability to uptake cisplatin (M. Smellie, et al., Br. J. Cancer, 1994, 70, 48). The results, which were obtained by incubating the cells with the compounds for 96 hours at 37° C., and assessing the cell number using Sulforhodamine B, are presented in the table below: […]
readout-kind: IC50
Could you kindly put the unit after your number?

C=C1C[C@H]2C=Nc3cc(OCCCOc4cc5c(cc4OC)C(=O)N4CC(=C)C[C@H]4C=N5)c(OC)cc3C(=O)N2C1: 0.024 nM

Okay, now this molecule:
**Query** Find the recorded IC50 belonging to COc1cc2c(cc1OCCCOc1cc3c(cc1OC)C(=O)N1CCC[C@@H]1C=N3)N=C[C@@H]1CCCN1C2=O [DSB-120, reference compound] and report it.
**Result** 210 nM
